Target: EGFR exon 20 NPG Ins D770_N771 (Ba/F3 cells) (Homo sapiens, UniProt P00533, INS770NPG)
Construct: expressed in transfected cells; host or cells: Ba/F3 (murine pro-B cells), retroviral transduction, puromycin selection, IL3-independent pool
Sequence (P00533 with tags, fused parts or gaps INS770NPG): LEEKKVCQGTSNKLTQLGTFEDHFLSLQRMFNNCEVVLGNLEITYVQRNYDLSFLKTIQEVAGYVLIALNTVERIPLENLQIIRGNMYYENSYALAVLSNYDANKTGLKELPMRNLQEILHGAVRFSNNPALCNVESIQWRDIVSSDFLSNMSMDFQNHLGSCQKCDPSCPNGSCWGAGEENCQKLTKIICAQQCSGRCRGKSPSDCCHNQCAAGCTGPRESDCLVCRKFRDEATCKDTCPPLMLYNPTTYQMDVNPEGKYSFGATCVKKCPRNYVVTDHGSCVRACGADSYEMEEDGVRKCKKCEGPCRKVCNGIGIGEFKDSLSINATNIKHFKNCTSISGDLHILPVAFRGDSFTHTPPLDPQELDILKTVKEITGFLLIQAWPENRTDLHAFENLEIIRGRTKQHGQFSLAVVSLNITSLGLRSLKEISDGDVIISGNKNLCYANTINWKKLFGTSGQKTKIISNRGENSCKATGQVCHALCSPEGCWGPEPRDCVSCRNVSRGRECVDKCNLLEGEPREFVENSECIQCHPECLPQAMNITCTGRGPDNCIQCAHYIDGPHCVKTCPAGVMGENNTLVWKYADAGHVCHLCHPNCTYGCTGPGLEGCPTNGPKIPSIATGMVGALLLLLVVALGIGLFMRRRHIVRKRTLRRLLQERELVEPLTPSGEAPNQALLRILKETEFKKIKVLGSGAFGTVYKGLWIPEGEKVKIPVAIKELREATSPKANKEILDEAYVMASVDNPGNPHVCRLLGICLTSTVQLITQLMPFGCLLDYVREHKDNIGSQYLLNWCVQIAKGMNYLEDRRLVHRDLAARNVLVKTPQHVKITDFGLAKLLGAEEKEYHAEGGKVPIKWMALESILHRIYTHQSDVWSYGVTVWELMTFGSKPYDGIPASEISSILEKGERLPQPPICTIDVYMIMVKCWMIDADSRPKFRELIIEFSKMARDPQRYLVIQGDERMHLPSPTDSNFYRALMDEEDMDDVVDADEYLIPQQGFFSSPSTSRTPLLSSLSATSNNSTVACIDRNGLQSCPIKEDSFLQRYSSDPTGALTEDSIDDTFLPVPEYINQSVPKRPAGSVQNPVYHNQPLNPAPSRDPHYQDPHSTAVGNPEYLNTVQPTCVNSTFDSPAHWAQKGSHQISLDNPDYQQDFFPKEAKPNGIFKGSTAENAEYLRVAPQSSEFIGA
Experiment: Inhibitor activity on EGFR-dependent cell growth (CellTiter-Glo, 72 h), Ba/F3 EGFR exon 20 NPG Ins
Assay type: cell-based
Settings: read-out: BaF3 NPG IC50
property_name: IC50

Worked examples, 10 compounds total:
Query string: What value of measured IC50 is listed for C=CC(=O)N1CCC(Oc2nc3c(-c4[nH]c5c(c4Nc4cccc(Cl)c4OC)C(=O)NCC5)ccnc3cc2OC)CC1 [Compound 731] ?
Result string: < 100 nM

Query string: What value of measured IC50 is listed for COc1c(Cl)cccc1Nc1c(-c2ccnc(C)n2)[nH]c2c1C(=O)NC[C@H]2CC1COCCO1 (stereo in doubt) [Compound 573] ?
Result string: < 100 nM

Query string: What value of measured IC50 is listed for C=CC(=O)N1CCC2(CC1)CNC(=O)c1c2[nH]c(-c2ccncc2F)c1Nc1cccc(Cl)c1Cl [Compound 589] ?
Result string: < 100 nM

Query string: What value of measured IC50 is listed for C=CC(=O)N1CCN(c2ncc3nccc(-c4[nH]c5c(c4Nc4cccc(F)c4OC)C(=O)NCC5)c3n2)CC1 [Compound 576] ?
Result string: < 100 nM

Query string: What value of measured IC50 is listed for C=CC(=O)N1CCC2(CC1)CNC(=O)c1c2[nH]c(-c2ccncc2F)c1Nc1ccc(Cl)c(F)c1 [Compound 588] ?
Result string: < 100 nM

Query string: What value of measured IC50 is listed for COc1c(F)cccc1Nc1c(-c2ccnc(Nc3cnn(C)n3)n2)[nH]c2c1C(=O)NCC2 [compound 593] ?
Result string: < 100 nM

Query string: What value of measured IC50 is listed for COc1c(Cl)cccc1Nc1c(-c2ccnc(-c3ccncn3)n2)[nH]c2c1C(=O)NCC2 [compound 546] ?
Result string: 100 to 1000 nM

Query string: What value of measured IC50 is listed for COc1c(Cl)cc(F)cc1Nc1c(-c2ccnc(N)n2)[nH]c2c1C(=O)NCC2 [Compound 714, trifluoroacetic acid] ?
Result string: < 100 nM

Query string: What value of measured IC50 is listed for CCn1nncc1Nc1nccc(-c2[nH]c3c(c2Nc2cccc(Cl)c2OC)C(=O)NCC3)n1 [compound 538] ?
Result string: < 100 nM

Query string: What value of measured IC50 is listed for COc1c(Cl)cccc1Nc1c(-c2ccnc(-c3ccnnc3)n2)[nH]c2c1C(=O)NCC2 [compound 542] ?
Result string: 100 to 1000 nM

Further cases:
Query string: What value of measured IC50 is listed for COc1c(Cl)cccc1Nc1c(-c2ccnc(Nc3cnnn3C)n2)[nH]c2c1C(=O)NCC2 [compound 512] ?
Result string: < 100 nM

Query string: What value of measured IC50 is listed for COc1c(F)cccc1Nc1c(-c2ncnc3[nH]ncc23)[nH]c2c1C(=O)NCC2 [Compound 158] ?
Result string: > 1000 nM

Query string: What value of measured IC50 is listed for C=CC(=O)N1CCC2(CC1)CNC(=O)c1c2[nH]c(-c2ccncc2F)c1Nc1ccc(F)c(Cl)c1 [Compound 587] ?
Result string: < 100 nM

Query string: What value of measured IC50 is listed for Nc1nccc(-c2[nH]c3c(c2Nc2cccc(F)c2OC(F)F)C(=O)NCC3)n1 [compound 299] ?
Result string: 100 to 1000 nM

Query string: What value of measured IC50 is listed for COc1c(Cl)cccc1Nc1c(-c2ccncc2F)[nH]c2c1C(=O)NC[C@@H]2C[C@@H]1COCCO1 [Compound 482] ?
Result string: < 100 nM
